experimental-details: Estimation of solubility: minimum solvent needed to dissolve a known amount
Assay type: physicochemical
condition-info: water, FIG. 6; read-out: aqueous solubility
measurement-label: solubility (mg/mL)
Write the number in mg/mL without appending the unit.

Consider the compound shown here: CC1(C)O[C@@H]2[C@@H](CO[C@@]3(COS(N)(=O)=O)OC(C)(C)O[C@@H]23)O1 [topiramate sodium trihydrate] What is its recorded solubility?
1300

====

experimental-details: Estimation of solubility: minimum solvent needed to dissolve a known amount
Format: physicochemical
condition-info: ethanol, room temperature; read-out: Solubility (amount of solid in mL of solvent)
measurement-label: solubility
Hi, when you answer, please include the unit after the number. Thanks!

Consider the compound shown here: CC1(C)O[C@@H]2[C@@H](CO[C@@]3(COS(N)(=O)=O)OC(C)(C)O[C@@H]23)O1 [topiramate sodium trihydrate] What is its recorded solubility?
376 mg/mL
